Source listed as patent US12358948B2.

- Experimental target: hNTS2 receptor (Homo sapiens)
- Construct: membranes prepared from them
- Sequence (O95665 whole entry): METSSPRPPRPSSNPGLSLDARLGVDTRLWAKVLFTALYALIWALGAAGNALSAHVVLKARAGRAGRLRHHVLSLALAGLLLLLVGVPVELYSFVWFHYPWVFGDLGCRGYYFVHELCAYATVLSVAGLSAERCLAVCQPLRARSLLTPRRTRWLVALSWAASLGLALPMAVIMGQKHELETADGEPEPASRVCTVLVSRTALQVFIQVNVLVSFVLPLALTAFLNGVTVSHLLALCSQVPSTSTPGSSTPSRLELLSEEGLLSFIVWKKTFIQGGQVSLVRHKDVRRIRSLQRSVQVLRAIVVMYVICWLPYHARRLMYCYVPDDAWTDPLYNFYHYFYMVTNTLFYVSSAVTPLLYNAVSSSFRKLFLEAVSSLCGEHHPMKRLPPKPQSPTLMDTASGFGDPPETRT
- Assay name: Competitive radioligand binding assay on the hNTS2 receptor
- Test settings: ratio IC50 for NTS1 : IC50 for NTS2
Where a SMILES comes first, the peptide text is derived from it. Bridges are numbered along the chain shown (N, C = ends). [ ]: non-standard residue; d: D form. Ala(cHept) = N[C@@H](CC1CCCCCC1)C(=O)O; AllylGly = C=CC[C@H](N)C(=O)O; Nle = CCCC[C@H](N)C(=O)O
Reported Selectivity values for a set of compounds
Attribute measured: Selectivity

1) CCCC[C@@H]1NC(=O)[C@@H](N)CC=CC[C@@H](C(=O)N[C@@H](Cc2ccc(O)cc2)C(=O)N[C@@H](CC(C)C)C(=O)O)NC(=O)[C@H](CCCCN)NC1=O [compound 85, c[G(All)NleKG(All)]YL] (H-[AllylGly][Nle]K[AllylGly]YL-OH; staple 1-4) = >93
2) NCCCC[C@@H]1NC(=O)[C@H](CCCCN)NC(=O)[C@@H](N)CC=CC[C@@H](C(=O)N[C@@H](Cc2ccc(O)cc2)C(=O)N[C@@H](CC2CCCCCC2)C(=O)O)NC1=O [compound 68, c[G(All)KKG(All)]YA(cycloheptyl)] (H-[AllylGly]KK[AllylGly]Y[Ala(cHept)]-OH; staple 1-4) = >14 600

====

- Experimental target: hNTS1 receptor (Homo sapiens)
- Construct: membranes prepared from them
- Sequence (P30989 whole entry): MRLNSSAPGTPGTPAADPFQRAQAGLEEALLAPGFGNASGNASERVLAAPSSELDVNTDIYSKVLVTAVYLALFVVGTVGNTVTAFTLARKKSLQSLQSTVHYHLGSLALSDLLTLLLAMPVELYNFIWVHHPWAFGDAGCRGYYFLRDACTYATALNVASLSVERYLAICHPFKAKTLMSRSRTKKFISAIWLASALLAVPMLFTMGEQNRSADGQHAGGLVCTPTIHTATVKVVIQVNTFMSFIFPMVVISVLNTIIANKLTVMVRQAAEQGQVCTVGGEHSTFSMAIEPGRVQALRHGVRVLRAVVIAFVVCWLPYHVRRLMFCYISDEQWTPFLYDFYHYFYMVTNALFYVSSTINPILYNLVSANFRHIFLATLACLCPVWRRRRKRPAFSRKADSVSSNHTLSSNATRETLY
- Assay name: Competitive radioligand binding assay on the hNTS1 receptor
- Test settings: displacement of 125I-[Tyr3]-NT, membranes of CHO-K1 cells expressing hNTS1; read-out: IC50 NTS1
Where a SMILES comes first, the peptide text is derived from it. Bridges are numbered along the chain shown (N, C = ends). [ ]: non-standard residue; d: D form. 2Pal = N[C@@H](Cc1ccccn1)C(=O)O; AllylGly = C=CC[C@H](N)C(=O)O
Attribute measured: IC50

1) CC(C)C[C@H](NC(=O)[C@H](Cc1ccccn1)NC(=O)[C@@H]1CC=CC[C@H](N)C(=O)N[C@@H](CCCCN)C(=O)N[C@@H](CCCCN)C(=O)N1)C(=O)O [compound 165, c[G(All)KKG(All)]A(2-pyridyl)L] (H-[AllylGly]KK[AllylGly][2Pal]L-OH; staple 1-4) = > 100 µM
2) COc1ccc(C[C@H](NC(=O)[C@H](Cc2ccc(O)cc2)NC(=O)[C@@H]2CC=CC[C@H](N)C(=O)N[C@@H](CCCCN)C(=O)N[C@@H](CCCCN)C(=O)N2)C(=O)O)cc1 [compound 62, c[G(All)KKG(All)]YY(OMe)] (H-[AllylGly]KK[AllylGly]YY(Me)-OH; staple 1-4) = > 100 µM

====

- Experimental target: hNTS1 receptor (Homo sapiens)
- Construct: membranes prepared from them
- Assay name: Competitive radioligand binding assay on the hNTS1 receptor
- Test settings: IC50 NTS1, displacement of 125I-[Tyr3]-NT, membranes of CHO-K1 cells expressing hNTS1
*1 amine or outer side, *2 acyl side, *3 side chain or, on linkers, in order; H or OH if unused. Where a SMILES comes first, the peptide text is derived from it. Bridges are numbered along the chain shown (N, C = ends). [ ]: non-standard residue; d: D form. ξ: configuration not given here. ξαMeNle(6-ylidene) = CC(CCCC=[*:3])(N[*:1])C(=O)[*:2]; Phe(4-Br) = N[C@@H](Cc1ccc(Br)cc1)C(=O)O; Ala(cPent) = N[C@@H](CC1CCCC1)C(=O)O; AllylGly = C=CC[C@H](N)C(=O)O
Attribute measured: IC50

1) NCCCC[C@@H]1NC(=O)[C@H](CCCCN)NC(=O)[C@@H](N)CC=CC[C@@H](C(=O)N[C@@H](Cc2ccc(Br)cc2)C(=O)N[C@@H](CC2CCCC2)C(=O)O)NC1=O [compound 127] (H-[AllylGly]KK[AllylGly][Phe(4-Br)][Ala(cPent)]-OH; staple 1-4) = > 100 µM
2) CC1(C(=O)N[C@@H](Cc2ccc(Br)cc2)C(=O)N[C@@H](CC2CCCC2)C(=O)O)CCCC=CC[C@H](N)C(=O)N[C@@H](CCCCN)C(=O)N[C@@H](CCCCN)C(=O)N1 (some centres unmarked) [compound 133] (H-[AllylGly]KK[ξαMeNle(6-ylidene)][Phe(4-Br)][Ala(cPent)]-OH; staple 1-4) = > 100 µM
